meta.source: patent US6448405B1

target: human androgen receptor (AR) (Homo sapiens); construct: expressed in transfected cells; host or cells: CV-1 cells, transient transfection; experiment: Co-transfection assay, AR agonist and antagonist activity, CV-1 cells (pRShAR); assay type: cell-based; details: Table 2; antagonist mode; % maximal inhibition
Sequence (P10275 whole entry): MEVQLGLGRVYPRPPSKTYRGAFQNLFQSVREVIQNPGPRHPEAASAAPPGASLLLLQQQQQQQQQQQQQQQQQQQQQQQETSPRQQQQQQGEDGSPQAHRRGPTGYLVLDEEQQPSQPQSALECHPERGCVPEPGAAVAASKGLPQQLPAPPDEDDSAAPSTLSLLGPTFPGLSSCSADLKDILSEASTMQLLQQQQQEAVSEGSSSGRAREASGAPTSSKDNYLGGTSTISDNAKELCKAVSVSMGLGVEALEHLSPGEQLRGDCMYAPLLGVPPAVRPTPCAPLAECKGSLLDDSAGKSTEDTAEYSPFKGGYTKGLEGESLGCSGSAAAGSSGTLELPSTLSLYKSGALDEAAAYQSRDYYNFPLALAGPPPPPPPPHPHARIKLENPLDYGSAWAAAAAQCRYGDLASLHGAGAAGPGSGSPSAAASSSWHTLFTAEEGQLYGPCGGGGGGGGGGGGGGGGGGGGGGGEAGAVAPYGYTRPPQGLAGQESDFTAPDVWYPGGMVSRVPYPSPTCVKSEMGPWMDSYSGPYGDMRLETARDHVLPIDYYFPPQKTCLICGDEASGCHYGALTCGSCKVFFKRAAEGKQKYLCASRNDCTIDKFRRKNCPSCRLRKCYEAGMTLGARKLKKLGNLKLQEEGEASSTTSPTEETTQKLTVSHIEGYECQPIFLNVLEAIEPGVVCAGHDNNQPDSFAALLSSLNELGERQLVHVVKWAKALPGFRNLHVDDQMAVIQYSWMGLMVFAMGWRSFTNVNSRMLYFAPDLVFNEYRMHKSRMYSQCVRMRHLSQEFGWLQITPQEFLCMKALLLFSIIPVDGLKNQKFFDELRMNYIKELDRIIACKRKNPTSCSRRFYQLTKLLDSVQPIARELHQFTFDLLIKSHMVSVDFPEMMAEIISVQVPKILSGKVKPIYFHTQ
property.label: AR Antagonist CV-1 Cells Efficacy (%)

1. CC1=CC(C)(C)N(C)c2cc3oc(=O)cc(C(F)(F)F)c3cc21 [Compound 265] :: 78%
